Experiment: NCI Yeast Anticancer Drug Screen. Data for the cln2 rad14 strain (AID 165);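 note: 0% = growth equal to vehicle treated cultures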
Details: S. cerevisiae cln2 rad14 strain, at 50.0 µM (retest, dose inferred, filed as 5.0), active compounds read high
Description: Growth inhibition of yeast strains with defined genetic alterations is measured as a screen for potential anti-cancer activity. Selected strains with alterations in DNA damage repair or cell cycle control were exposed to compounds and growth inhibition was measured relative to vehicle treated controls. The strain used in this assay is cln2 rad14
The panel holds about 79,000 compounds, 15% with a hit somewhere; the sample as a whole holds those more often. Active and inactive are the calls of the source. Cut-off read from the data, not from the text of the source: active = growth inhibition above about 70%; inactive = the rest.
Listed next: entries and their corresponding growth inhibition.

Example entries begin here.
Compound | Recorded Endpoint | Reading
Cc1occc1C(=S)Nc1ccc(Cl)c(C(=O)OCC(C)C)c1 | growth inhibition | 71% (active)
COC(CCC[N+](C)(C)C)CC[N+](C)(C)C (configuration not stated) | growth inhibition | 70% (active)

Kindly consider the entry below.
## Task Look at this compound and give its reported growth inhibition. O=[N+]([O-])c1cc2cccnc2c2ncccc12
## Result 21% (inactive)

* * *

Listed next: entries and their corresponding growth inhibition.
test: NCI Yeast Anticancer Drug Screen. Data for the sgs1 mgt1 strain (AID 161);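 note: 0% = growth of cultures given vehicle only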; details: S. cerevisiae sgs1 mgt1 strain, at 50.0 µM, active compounds read high
Compounds without any hit were thinned out: in the full panel of roughly 79,000, 15% have a hit.
# value in %; strip the unit string

Compound | U | growth inhibition
c1ccc(CCc2c[nH]c3ccccc23)cc1 | % | 72.5

## Task Look at this compound and give its reported growth inhibition. N#CSc1cc(SC#N)c2ccccc2c1N
## Result 57.9

## Task # repeat for CNC(Cc1ccccc1)c1ccc(OC)c2ccccc12 (configuration not stated)
## Result 14.8

## Task # repeat for O=C1C=CC(=O)N1C1c2ccccc2-c2ccccc21
## Result 99.5

## Task # repeat for CC(=O)C(=Cc1ccc(C=C(C(C)=O)C(C)=O)cc1)C(C)=O
## Result 58.5

## Task # repeat for CCCCCCCCSCc1ccc(N)cc1
## Result 90.5

## Task # repeat for FC(F)(F)c1nc(S)cc(=S)[nH]1
## Result -5.45

## Task # repeat for CC(C(O)c1ccccc1)C(O)(C(F)(F)F)C(F)(F)F (configuration not stated)
## Result -15.9

## Task # repeat for O=[N+]([O-])c1ccc(Cc2nc3ccccc3s2)cc1
## Result 6.3

## Task # repeat for Cc1ccc(SSCCCCCS(=O)O)cc1
## Result 42.9

## Task # repeat for Cc1cc(N)c2ccccc2[n+]1CCCCCCCCCC[n+]1c(C)cc(N)c2ccccc21
## Result 92.3

## Task # repeat for Nc1nc2nn(-c3ccc(C(=O)O)cc3)nc2c(=O)[nH]1
## Result 9.3

* * *

Listed next: entries and their corresponding growth inhibition.
Assay: NCI Yeast Anticancer Drug Screen. Data for the cln2 rad14 strain (AID 165);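 note: 0% = growth equal to vehicle treated cultures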
Conditions: S. cerevisiae cln2 rad14 strain, at 5.0 µM (retest, dose inferred, filed as 0.5), active compounds read high
Procedure: Growth inhibition of yeast strains with defined genetic alterations is measured as a screen for potential anti-cancer activity. Selected strains with alterations in DNA damage repair or cell cycle control were exposed to compounds and growth inhibition was measured relative to vehicle treated controls. The strain used in this assay is cln2 rad14
About 79,000 compounds went through this panel and 15% of them were active in at least one assay; those are over-represented in the sample as a whole.
# value in %; strip the unit string

Example entries begin here.
Compound | Recorded Endpoint | U | Reading
N#Cc1c(Cl)nc2ccccc2c1N=[N+]=[N-] | growth inhibition | % | 6
S=C(NCCNC(=S)[S][Sn]([c]1ccccc1)([c]1ccccc1)[c]1ccccc1)[S][Sn]([c]1ccccc1)([c]1ccccc1)[c]1ccccc1 | growth inhibition | % | 96
CCCCN(CCCC)CCC(O)(c1ccc(OC)c2ccccc12)C(O)(CCN(CCCC)CCCC)c1ccc(OC)c2ccccc12 (stereo not given) | growth inhibition | % | 35

## Task Look at this compound and give its reported growth inhibition. COc1ccc(/C=C/c2c[n+]([O-])ccc2[N+](=O)[O-])cc1
## Result 12

## Task # repeat for CCOC1=C(NC(C)=O)C(=O)c2ccccc2C1=O
## Result 60

## Task # repeat for CC(=O)OC1CCC2(C)C3CCC4(C)C(C(C)CCCC(C)C)CCC4C3CCC23OC13C (stereo not given)
## Result -3

## Task # repeat for O=C(c1ccccc1)C1OC1c1ccccc1Cl (stereo not given)
## Result 4

## Task # repeat for C=C(C)C(=O)OC1CC2=CC(CC3(C)OC3C3OC(=O)C(=C)C13)OC2=O (stereo not given)
## Result 8

## Task # repeat for O=C(O)C(CS)Nc1c2ccccc2nc2ccccc12 (stereo not given)
## Result 17

## Task # repeat for CCOC(=O)c1csc(/C=C/c2cc(OC)c(OC)c(OC)c2)n1
## Result -4

* * *

assay: NCI Yeast Anticancer Drug Screen. Data for the bub3 strain (AID 167); settings: S. cerevisiae bub3 mutant strain, at 5.0 µM (retest, dose inferred, filed as 0.5)
About 79,000 compounds went through this panel and 15% of them were active in at least one assay; those are over-represented in the sample as a whole. The source made the active and inactive calls. No stated cut-off is given here; in the data, active means growth inhibition above about 70%; inactive means the rest.
One label from this list, please: active, inactive

# example entries with known answers
Compound | Label
CCC(=O)N1c2ccccc2CC1c1c[nH]c2ccccc12 (centres undefined) | inactive
COC(=O)/C=C1/Nc2ccc(Cl)cc2C(=O)NC1=O | inactive
CC(C)OC(=O)c1cc([N+](=O)[O-])cc([N+](=O)[O-])c1Sc1ncnc2nc[nH]c12 | inactive
c1ccc(CN2CCc3[nH]c4ccccc4c3C2)cc1 | inactive
CCOC(=O)/C(=C\c1ccc(-c2ccccc2)cc1)C(C)=O | inactive
CC(C)C(=O)NNc1ccccc1 | inactive

## Task Please state the recorded outcome for this compound: CCOC(=O)C(C)(c1c(C)[nH]c2ccccc12)c1c(C)[nH]c2ccccc12
## Result inactive

* * *

Listed next: entries and their corresponding growth inhibition.
experiment: NCI Yeast Anticancer Drug Screen. Data for the bub3 strain (AID 167); details: S. cerevisiae bub3 mutant strain, at 5.0 µM (retest, dose inferred, filed as 0.5), active compounds read high
This is part of a sample that, as a whole, favours compounds with a hit. Of some 79,000 tested, about 15% had one in any assay.
# value in %; strip the unit string

Example entries begin here.
Molecule | U | growth inhibition
C=CC(=O)NC(=O)Nc1ccc(Cl)cc1 | % | 23
Oc1c(Cl)c2ccccc2c2ccccc12 | % | 37
Clc1ccc(-c2cc(-c3cc(-c4ccc(Cl)c(Cl)c4)n[nH]3)[nH]n2)cc1Cl | % | -14
CCOC(=O)CC(NC(=O)c1[nH]cnc1/N=N/N(C)C)C(=O)OCC (configuration not stated) | % | -12
FC(F)(F)c1nc(S)cc(=S)[nH]1 | % | -2
N#Cc1ccc([N+](=O)[O-])o1 | % | 7
CC1CCC(C(C)C2C(O)CC3C4CC=C5CC(O)CCC5(C)C4CCC32C)NC1 (configuration not stated) | % | -1
CCOC(=O)/C(Cl)=C(\OCC)C(=O)OCC | % | -1

## Task Look at this molecule and give its reported growth inhibition. CCC1(c2ccc(N3C(=O)c4ccccc4C3=O)cc2)CCC(=O)NC1=O (configuration not stated)
## Result -17

## Task # repeat for CS(=O)(=O)OCCN(CCOS(C)(=O)=O)c1ccc(C=Nc2cccc(Cl)c2)cc1
## Result 1

## Task # repeat for O=C(O)C(O)C(O)C(O)C(O)c1nc2ccccc2s1 (configuration not stated)
## Result 8

## Task # repeat for COc1ccc(C(=O)C(CN2CCCC2)CN2CCCC2)cc1
## Result -5

* * *

assay: NCI Yeast Anticancer Drug Screen. Data for the mec2-1 strain (AID 157); conditions: S. cerevisiae mec2-1 strain, at 50.0 µM, active compounds read high
The panel holds about 79,000 compounds, 15% with a hit somewhere; the sample as a whole holds those more often.
Listed next: entries and their corresponding growth inhibition.
# value in %; strip the unit string

Example entries begin here.
Molecule | growth inhibition [%]
O=S(=O)(c1ccc(OCC(O)COc2ccc(S(=O)(=O)c3ccc(OCC4CO4)cc3)cc2)cc1)c1ccc(OCC2CO2)cc1 (configuration not stated) | 37.2
CCOC(=O)N1CCN(c2cc(C)nc3cc(OC)ccc23)CC1 | 5.9
CC(C)C1(c2ccccc2)C(=O)c2ccccc2C1=O | 77.5
CC1N=C(Cc2ccccc2)SC1C (configuration not stated) | 86.1

## Task Look at this molecule and give its reported growth inhibition. CCOC(=O)CNC(=O)Sc1ccc(C(C)(C)C)cc1C
## Result 19.8

## Task # repeat for Cc1ccc(N=NC(C(=O)c2ccccc2)C(=O)c2ccccc2)cc1
## Result 93.3

## Task # repeat for CCOC(=O)C(Br)C(Br)c1cccc([N+](=O)[O-])c1 (configuration not stated)
## Result 99.8

* * *

Test: NCI Yeast Anticancer Drug Screen. Data for the mec2-1 strain (AID 157)
Conditions: S. cerevisiae mec2-1 strain, at 5.0 µM (retest, dose inferred, filed as 0.5), active compounds read high
Method: Growth inhibition of yeast strains with defined genetic alterations is measured as a screen for potential anti-cancer activity. Selected strains with alterations in DNA damage repair or cell cycle control were exposed to compounds and growth inhibition was measured relative to vehicle treated controls. The strain used in this assay is mec2-1
About 79,000 compounds went through this panel and 15% of them were active in at least one assay; those are over-represented in the sample as a whole.
Listed next: entries and their corresponding growth inhibition.
# value in %; strip the unit string

Example entries begin here.
Molecule | Reading
CCCCCCN(CCCCCC)CC(O)c1cc(-c2ccccc2)nc2c(O)cccc12 (stereo not drawn) | 7
COc1ccc2c(c1)CCC1=C2C=C[P+]1(C)C | -5
CC(C)CCCCCCCCCCCCC(=O)NCC(=O)NC1C(C)OC(Nc2ncnc3nc[nH]c23)C(O)C1O (stereo not drawn) | 54
O=[N+]([O-])c1cc2cccnc2c2ncccc12 | -43
CCCCCCCCCCCCCCCCCCOP(=O)([O-])OC1CC[N+](C)(C)CC1 | 98
O=C(O)c1c2c(cc3c1CC1(Cc4cc5c(cc4C1=O)CCC5)C3)CCC2 (stereo not drawn) | 58
c1coc(C2=Nc3cccc4cccc(c34)N2)c1 | 5
O=C1CCC(=O)c2c1c(O)c1ccncc1c2O | 26
O=C(O)CCSCc1cc(C(=O)Nc2ccc(/C=C/c3ccc(NC(=O)c4cc(CSCCC(=O)O)c5cccnc5c4O)cc3S(=O)(=O)O)c(S(=O)(=O)O)c2)c(O)c2ncccc12 | 37
C/C(=N\NC(=S)N1CCN(c2ccccn2)CC1)c1ncccn1 | -20

## Task Look at this molecule and give its reported growth inhibition. CCC(=O)/C(=C\I)c1ccccc1
## Result -6

## Task # repeat for CC(NNC(=S)N(C)C1CCCCC1)c1cc2ccccc2cn1 (stereo not drawn)
## Result 55

## Task # repeat for CC(C)(C)CC(C)(C)c1ccc(O)c(O)c1
## Result 100

## Task # repeat for OCc1ccc(OCc2ccccc2)c(OCc2ccccc2)c1
## Result 7

## Task # repeat for c1ccc2c(c1)[nH]c1cc3ccncc3cc12
## Result -30

## Task # repeat for OC1C2COc3nc4ccccc4n3C(O2)C1O (stereo not drawn)
## Result -54

## Task # repeat for CCCCN(C)C(=S)N/N=C(\C)c1ccccn1
## Result 73

## Task # repeat for CCCCc1ccc2nc(C)cc(N/N=C/c3ccc4c(c3)OCO4)c2c1
## Result 1
